# Test system: CCRF-CEM leukemia
# protocol: NCI tumour cell line growth inhibition, 48 h
Kindly state TGI for each of the entries shown.
Hi! Could you send only the number? It should be in µM, unit omitted.

**Q:** Consider the compound O=C1C=CC(=O)c2nc3c(cc21)CCC3 and give its recorded TGI.
**A:** 25.6

**Q:** Consider the compound NC1(c2cc3ccccc3s2)CCCC1 and give its recorded TGI.
**A:** 42.3

* * *

# Tested on: MALME-3M melanoma
# protocol: NCI tumour cell line growth inhibition, 48 h
reported.metric: TGI (µM)
Hi! Could you send only the number? It should be in µM, unit omitted.

**Q:** Consider the compound CCCCOC(=O)Nc1ccc(S(=O)(=O)Nc2ccccc2Cl)cc1 and give its recorded TGI.
**A:** 52.5

**Q:** Consider the compound COc1ccc2cc1Oc1ccc(cc1)C[C@H]1c3cc(c(OC)cc3CCN1C)Oc1c(O)c(OC)cc3c1[C@H](C2)N(C)CC3 and give its recorded TGI.
**A:** 52.5

**Q:** Consider the compound O=c1ccc2ccccc2cc1[O-].O=c1ccc2ccccc2cc1[O-].[O]=[U+2]=[O] and give its recorded TGI.
**A:** 26.3

**Q:** Consider the compound CC1(C)O[C@H]2OC(CO[Si](C)(C)C(C)(C)C)C(N=[N+]=[N-])[C@H]2O1 (stereo partly drawn) and give its recorded TGI.
**A:** 31.7

**Q:** Consider the compound O=C1c2cc3c(cc2-c2c1c1ccc(F)cc1c(=O)n2C[C@H](O)[C@@H](O)[C@H](O)CO)OCO3 and give its recorded TGI.
**A:** 0.565

**Q:** Consider the compound Cc1cc(I)cc(CN(CCCN(C)C)C(C)C)c1O and give its recorded TGI.
**A:** 40.8
